Procedure Details: Concentrations in plasma and brain tissue after i.p. injection (LC/MS/MS)
Assay Context: mouse, in vivo, 1 mg/kg
Value Type: concentration at 60 min (ng/mL)

1) O=C1CC[C@@]2(O)[C@H]3Cc4ccc(O)c5c4[C@@]2(CCN3CC2CC2)[C@H]1O5 [Naltrexone, naltrexone, reference compound] | 4

###

Procedure Details: Concentrations in plasma and brain tissue after i.p. injection (LC/MS/MS)
Assay Context: mouse, brain, intraperitoneal, 1 mg/kg
Value Type: concentration at 10 min (ng/g)

1) O=C1CC[C@@]2(O)[C@H]3Cc4ccc(O)c5c4[C@@]2(CCN3CC2CC2)[C@H]1O5 [Naltrexone, naltrexone, reference compound] | 69

###

Procedure Details: Concentrations in plasma and brain tissue after i.p. injection (LC/MS/MS)
Assay Context: mouse, brain, intraperitoneal, 1 mg/kg
Value Type: concentration at 60 min (ng/g)

1. O=C1CC[C@@]2(O)[C@H]3Cc4ccc(O)c5c4[C@@]2(CCN3CC2CC2)[C@H]1O5 [Naltrexone, naltrexone, reference compound] | 9
